Entry source: the supplement of paper PMC10899765

Some sequences, each annotated with its measured 5+ nucleoli phenotype percent effect.
- Tested on: MCF10A
- test-protocol: 5+ nucleoli phenotype percent effect (relative to siNT 0% and siKIF11 100%); higher = more cells with five or more nucleoli
- measurement-context: 20 nM; 72 h
State just the number; it will be interpreted in %.

- residue-string: "UGAGCCCUGUCCUCCCGCAG [hsa-miR-1233-3p]"
  u: "%"
  5+ nucleoli phenotype percent effect: 7.25

Query: Give 5+ nucleoli phenotype percent effect for UCGGGCGCAAGAGCACUGCAGU [hsa-miR-6499-5p]
Result: -9.6

Query: Give 5+ nucleoli phenotype percent effect for CACCUUGCGCUACUCAGGUCUG [hsa-miR-3200-3p]
Result: -0.139

Query: Give 5+ nucleoli phenotype percent effect for GAAUACUAAGUAAAAAAUCAGUA [hsa-miR-8084]
Result: 66.7

Query: Give 5+ nucleoli phenotype percent effect for UCUUUGGUUAUCUAGCUGUAUGA [hsa-miR-9-5p]
Result: -15.1

Query: Give 5+ nucleoli phenotype percent effect for CCGCUCUUCCCCUGACCCCAG [hsa-miR-6812-3p]
Result: 54.6
